Tested on: OVCAR-8 ovarian
method_notes: NCI-60 one-dose screen, 48 h (100 = growth as untreated, 0 = no growth, -100 = all killed)
condition_set: 10 µM unless noted
This is part of a sample that, as a whole, favours compounds with a hit. Of some 83,000 tested, about 20% had one in any assay. The source made the active and inactive calls. How the source made its calls: active means growth percent below 10; inactive means the rest.
readout: growth

Solved entries:
INSERT INTO measurements (compound, reported_measurement) VALUES
  ('CCN(CC)CC(O)COc1c(Br)c(Br)c(Br)c2c1OC(C)(C)C2 (centres undefined)', '126% (inactive)'),
  ('N#Cc1c(-c2ccccc2)cc(-c2ccc(Nc3nc(Nc4ccc(Cl)cc4)nc(Nc4ccc(Cl)cc4)n3)cc2)nc1N', '32.6% (inactive)'),
  ('CCOC(=O)C/C(=N\Nc1cc(=O)[nH]c2ccc(Br)cc12)C(=O)OCC', '98.6% (inactive)');

Next, consider the following compound.
q: Please give measured growth of the following entry: CC(C)=CC(=O)OCC(=O)O[C@@H]1C[C@]2(C(C)C)O[C@@]1(C)[C@@H]1CC[C@@H](C)[C@H]1[C@@H]2OC(=O)/C=C/c1ccccc1
a: 35.9% (inactive)
